PROTOCOL DETAILS: RP, Waters ACQUITY UPLC HSS T3, 100 × 2.1 mm, 1.8 µm, 30 °C, 0.4 mL/min, estimated dead time 0.55 min; A: water + 0.1% formic acid, pH 3; B: acetonitrile + 0.1% formic acid, pH 3; gradient (min/%B) 0/0 2/0 15/100 22/100 22.1/0 26/0
TEST SETTINGS: stereoisomer not certain
Please note: criterion met applies when LC retention time is 10 min or greater, and criterion not met applies otherwise.

See these solved cases before continuing.
# bool: LC retention time of COc1cc(CNC(=O)CCCCC=CC(C)C)ccc1O [Capsaicin] >= 10 min
criterion met

# bool: LC retention time of COc1ccc(C2CC(=O)c3c(O)cc(O)cc3O2)cc1O (stereo not drawn) [Hesperetin] >= 10 min
criterion met

# bool: LC retention time of COc1ccc(-c2cc(=O)c3c(OC)c(OC)c(OC)c(OC)c3o2)cc1OC [Nobiletin] >= 10 min
criterion met

# bool: LC retention time of CC(C)=CCCC(C)=CCOc1c2ccoc2cc2oc(=O)ccc12 [Bergamottin] >= 10 min
criterion met

# bool: LC retention time of Cn1c(=O)[nH]c2nc[nH]c2c1=O [1-Methylxanthine] >= 10 min
criterion not met

# bool: LC retention time of O=C(OC1Cc2c(O)cc(O)cc2OC1c1ccc(O)c(O)c1)c1cc(O)c(O)c(O)c1 (stereo not drawn) [Epicatechin gallate] >= 10 min
criterion not met

# bool: LC retention time of O=c1c(O)c(-c2ccc(OS(=O)(=O)O)c(O)c2)oc2cc(O)cc(O)c12 [Quercetin 4-O-sulfate] >= 10 min
criterion met

From here, focus on the item given below.
# bool: LC retention time of O=c1c(-c2ccc(O)cc2)coc2cc(O)cc(O)c12 [Genistein] >= 10 min
criterion met
